For each entry below, report its APCC % Change TC value.
experiment: APCC in vivo screen: blood cholesterol in rats on PCC diet with cholic acid; parameters: species or system male Sprague-Dawley rats; conditions: single dosing at 4 PM, PCC diet overnight with 1% or 0.5% cholic acid, sacrificed 8 AM
Numbers only here, please. The scale is %.

Ask: Value lookup for APCC % Change TC; key = CCCCCCCCCCCCC(C)OC(=O)C(C(=O)Nc1c(C(C)C)cccc1C(C)C)c1ccccc1 (racemic) [Example 1]
Result: -61

Ask: Value lookup for APCC % Change TC; key = CCCCC(C)(C)OC(=O)C(C(=O)Nc1c(C(C)C)cccc1C(C)C)c1ccccc1 (racemic) [Example 15]
Result: -72

Ask: Value lookup for APCC % Change TC; key = CCCCCCCCCCC(C)OC(=O)C(C(=O)Nc1c(C(C)C)cccc1C(C)C)c1ccccc1 (racemic) [Example 4]
Result: -37

Ask: Value lookup for APCC % Change TC; key = CCCOC(=O)C(C(=O)Nc1c(C(C)C)cccc1C(C)C)c1ccccc1 (racemic) [Example 9]
Result: -20

Hello, the source for this data is patent US5420339A, in case you need it.
